Kindly state LBPA endosome anti-LBPA integrated intensity (z-score) for each of the entries shown.
System: HeLa MZ
protocol.summary: LBPA endosome anti-LBPA integrated intensity (sum per cell), Z-score; higher = more LBPA staining
measurement.conditions: compound concentration in added solution (µM; 5 µl added to 20 µl cells): 10; 18 h
Structures can show the parent of a compound that is named as a salt.

Q: Please report the recorded LBPA endosome anti-LBPA integrated intensity (z-score) for CC(COc1ccccc1)NC(C)C(O)c1ccc(O)cc1 (centres undefined) [Isoxsuprine hydrochloride] .
Result: 0.869

Q: Cc1cc(NC(=O)C2=C(O)c3ccccc3S(=O)(=O)N2C)no1 ?
Result: -1.14

Q: COc1ccc(NS(=O)(=O)c2ccc(N)cc2)nn1 ?
Result: -1.31

Q: CC(C)NC[C@@H](O)COc1cccc2ccccc12 [(R)-Propranolol hydrochloride] ?
Result: 1.45

====

Test system: HeLa MZ
protocol.summary: LBPA endosome anti-LBPA integrated intensity (sum per cell), Z-score; higher = more LBPA staining
measurement.conditions: compound concentration in added solution (µM; 5 µl added to 20 µl cells): 10; 18 h
Where a name gives a salt, the structure may show the parent alone.
Kindly state LBPA endosome anti-LBPA integrated intensity (z-score) for each of the entries shown.
Hey, just send me the number, nothing else.

Q: Please report the recorded LBPA endosome anti-LBPA integrated intensity (z-score) for CN(C)CCN1C(=O)c2ccccc2N(C)c2ccccc21 [Dibenzepine hydrochloride] .
Result: 0.481

Q: CCCc1cc(C(N)=S)ccn1 [Prothionamide] ?
Result: 0.224

Q: OCCN1CCN(CC/C=C2/c3ccccc3Sc3ccc(Cl)cc32)CC1 [Zuclopenthixol hydrochloride] ?
Result: 1.68

Q: O=C(c1ccc(OCCN2CCCCC2)cc1)c1c(-c2ccc(O)cc2)sc2cc(O)ccc12 [Raloxifene hydrochloride] ?
Result: 1.35

Q: COc1ccccc1N1CCN(CCCCNC(=O)c2ccc3ccccc3c2)CC1 ?
Result: 1.25

Q: CCC(=O)O[C@]1(C(=O)SCF)[C@H](C)C[C@H]2[C@@H]3C[C@H](F)C4=CC(=O)C=C[C@]4(C)[C@@]3(F)[C@@H](O)C[C@@]21C [Fluticasone propionate] ?
Result: 0.00943

Q: NS(=O)(=O)Cc1noc2ccccc12 [Zonisamide] ?
Result: 0.173

Q: CCCN(CCC)CCc1cccc2c1CC(=O)N2 [Ropinirole HCl] ?
Result: 0.764

Q: CSc1ccc2c(c1)N(CCC1CCCCN1C)c1ccccc1S2 (configuration not stated) [Thioridazine hydrochloride] ?
Result: 0.375

Q: O=c1cc(-c2ccc(O)c(O)c2)oc2cc(O)cc(O)c12 ?
Result: 0.459

Q: CCn1nc(C(=O)O)c(=O)c2cc3c(cc21)OCO3 ?
Result: 0.452

Q: CCCc1nc2c(C)cc(-c3nc4ccccc4n3C)cc2n1Cc1ccc(-c2ccccc2C(=O)O)cc1 ?
Result: 0.924

Q: CCc1ccc(CCOc2ccc(CC3SC(=O)NC3=O)cc2)nc1 (configuration not stated) ?
Result: -0.449

Q: CCCCN(CCCC)CCC(O)c1cc2c(Cl)cc(Cl)cc2c2cc(C(F)(F)F)ccc12 (configuration not stated) [Halofantrine hydrochloride] ?
Result: -0.119

Q: Cc1ncc(C[n+]2csc(CCO)c2C)c(N)n1 [Thiamine hydrochloride] ?
Result: -0.0332

Q: N[C@@H](Cc1ccc(O)c(O)c1)C(=O)O ?
Result: -0.518

Q: CC1(C)O[C@@H]2C[C@H]3[C@@H]4C[C@H](F)C5=CC(=O)C=C[C@]5(C)[C@H]4[C@@H](O)C[C@]3(C)[C@]2(C(=O)CO)O1 [Flunisolide] ?
Result: -1.26

====

Test system: A431
protocol.summary: LBPA endosome anti-LBPA integrated intensity (sum per cell), Z-score; higher = more LBPA staining
measurement.conditions: compound concentration in added solution (µM; 5 µl added to 20 µl cells): 10; 18 h
Where a name gives a salt, the structure may show the parent alone.
Kindly state LBPA endosome anti-LBPA integrated intensity (z-score) for each of the entries shown.
Hey, just send me the number, nothing else.

Q: Please report the recorded LBPA endosome anti-LBPA integrated intensity (z-score) for Nc1nc2n[nH]nc2c(=O)[nH]1 [Azaguanine-8] .
Result: -0.399

Q: Cc1cc(N)c2ccccc2[n+]1CCCCCCCCCC[n+]1c(C)cc(N)c2ccccc21 [Dequalinium dichloride] ?
Result: -0.351

Q: CC(CN1c2ccccc2Sc2ccccc21)N(C)C (stereo not given) [Promethazine hydrochloride] ?
Result: 2.24

Q: CC(=O)Nc1ccc(O)cc1 [Acetaminophen] ?
Result: -0.388

Q: COc1cccc(N(C)C(=S)Oc2ccc3c(c2)CCCC3)n1 [Liranaftate] ?
Result: 0.29

====

Tested on: HeLa MZ
protocol.summary: whole-cell filipin (free cholesterol) integrated intensity, Z-score; higher = more cholesterol staining
measurement.conditions: compound concentration in added solution (µM; 5 µl added to 20 µl cells): 10; 18 h
Where a name gives a salt, the structure may show the parent alone.
Class TRUE: whole-cell filipin (z-score) at least 0.1. Class FALSE: whole-cell filipin (z-score) below 0.1.

Q: Quick check: does CO/N=C(\C(=O)N[C@@H]1C(=O)N2C(C(=O)O)=C(COC(C)=O)CS[C@H]12)c1csc(N)n1 [Cefotaxime sodium salt] have whole-cell filipin (z-score) greater than or equal to 0.1?
Result: FALSE

Q: CNCC[C@@H](Oc1ccccc1C)c1ccccc1 [Tomoxetine hydrochloride] ?
Result: FALSE

Q: Cc1c(C)c2c(c(C)c1O)CCC(C)(C(=O)O)O2 (stereo not drawn) ?
Result: TRUE

Q: C[C@@H]1C[C@H]2[C@@H]3C[C@H](F)C4=CC(=O)C=C[C@]4(C)[C@@]3(F)[C@@H](O)C[C@]2(C)[C@@]1(O)C(=O)CO ?
Result: TRUE

Q: O=C(COc1ccc(Cl)cc1)N1CCN(Cc2ccc3c(c2)OCO3)CC1 [Fipexide hydrochloride] ?
Result: FALSE

Q: CC(=O)Oc1cccc2c1C(=O)c1c(OC(C)=O)cc(C(=O)O)cc1C2=O ?
Result: TRUE

Q: CNCCCN1c2ccccc2CCc2ccccc21 [Desipramine hydrochloride] ?
Result: TRUE

Q: CN(C)CCOC(=O)COc1ccc(Cl)cc1 [Meclofenoxate hydrochloride] ?
Result: FALSE

Q: CCSc1ccc2c(c1)N(CCCN1CCN(C)CC1)c1ccccc1S2 [Thiethylperazine dimalate] ?
Result: FALSE

Q: CCN(CC)CCNC(=O)c1cc(S(C)(=O)=O)ccc1OC [Tiapride hydrochloride] ?
Result: FALSE

Q: CC1(C)S[C@@H]2[C@H](NC(=O)Cc3ccccc3)C(=O)N2[C@H]1C(=O)O [Benzathine benzylpenicillin] ?
Result: TRUE

Q: CN1CCN(CCCN2c3ccccc3Sc3ccc(C(F)(F)F)cc32)CC1 [Trifluoperazine dihydrochloride] ?
Result: TRUE

Q: Clc1ccc2nsnc2c1NC1=NCCN1 [Tizanidine HCl] ?
Result: FALSE

====

Test system: A431
protocol.summary: filipin (cholesterol) integrated intensity within LBPA endosomes, Z-score; higher = more cholesterol in LBPA endosomes
measurement.conditions: compound concentration in added solution (µM; 5 µl added to 20 µl cells): 10; 18 h
Where a name gives a salt, the structure may show the parent alone.
Class condition met: filipin (z-score) at least -0.4. Class condition not met: filipin (z-score) below -0.4.

Q: Quick check: does Cn1c(=O)c2c(ncn2C)n(C)c1=O have filipin (z-score) greater than or equal to -0.4?
Result: condition met

Q: CC(C)NC[C@H](O)COc1cccc2ccccc12 [(S)-propranolol hydrochloride] ?
Result: condition met

Q: NS(=O)(=O)c1cc2c(cc1C(F)(F)F)NCNS2(=O)=O [Hydroflumethiazide] ?
Result: condition not met

Q: CNCC(O)c1ccc(OC(=O)C(C)(C)C)c(OC(=O)C(C)(C)C)c1 (stereo not given) [Dipivefrin hydrochloride] ?
Result: condition met

Q: Clc1ccc(C(Cn2ccnc2)OCc2c(Cl)cccc2Cl)c(Cl)c1 (stereo not given) ?
Result: condition met

Q: O=C1CCC(N2C(=O)c3ccccc3C2=O)C(=O)N1 (stereo not given) [Thalidomide] ?
Result: condition not met

Q: COc1ccc([C@@H]2CC(=O)c3c(O)cc(O[C@@H]4O[C@H](CO[C@@H]5O[C@@H](C)[C@H](O)[C@@H](O)[C@H]5O)[C@@H](O)[C@H](O)[C@H]4O)cc3O2)cc1O ?
Result: condition not met

Q: Nc1cc(C(Cl)=C(Cl)Cl)c(S(N)(=O)=O)cc1S(N)(=O)=O ?
Result: condition not met

Q: N=C(NCCCCCCNC(=N)NC(=N)Nc1ccc(Cl)cc1)NC(=N)Nc1ccc(Cl)cc1 ?
Result: condition met

Q: Cn1c(=O)c2c(ncn2CC2OCCO2)n(C)c1=O ?
Result: condition not met

Q: O=C(O)c1cc(-c2ccc(F)cc2F)ccc1O ?
Result: condition not met

Q: NS(=O)(=O)c1cc(C2(O)NC(=O)c3ccccc32)ccc1Cl (stereo not given) ?
Result: condition not met

Q: O=C(O)[C@H]1/C(=C/CO)O[C@@H]2CC(=O)N21 [Potassium clavulanate] ?
Result: condition met
